Measurement description: Intrinsic clearance in rat liver microsomes assessed per mg of protein at 1 uM by UPLC/TOF-MS analysis
Type: ADME, Microsome
Setup conditions: read-out: CLH
Quantity kind: microsomal CLint at 1 µM (µL/min/mg)
Numbers only here, please. The scale is µL/min/mg.

For this compound ( `COc1ccc(-c2cc(NC(=O)CCCCN3CCCN(C(C)=O)CC3)[nH]n2)cc1` ), measured microsomal CLint at 1 µM is 13

###

Measurement description: Oral bioavailability in Long Evans rat at 20 mg/kg
Format: ADME, organism-based
Setup conditions: in vivo
Quantity kind: bioavailability
# output: numeric value plus its unit

Query `COc1ccc(-c2cc(NC(=O)CCCCN3CCCN(C(C)=O)CC3)[nH]n2)cc1` yields bioavailability of 12%
